Form field: Activity (one value per entry).
- experimentalSystem: Proteasome component C5 (Homo sapiens)
- assayDetails: Inhibition of 26S proteasome beta 1 in human HEK293 cell lysate assessed as residual activity at 0.019 uM after 1 hr
- Assay type: cell-free
Write down the numeric answer in % and omit the unit.

// solved cases for Activity follow
CC(C)C[C@H](NC(=O)[C@H](Cc1ccccc1)NC(=O)[C@H](Cc1ccccc1)NC(=O)[C@H](Cc1ccccc1)N=[N+]=[N-])C(=O)[C@@]1(C)CO1
76.8
CC(C)C[C@H](NC(=O)[C@H](Cc1cc(C(F)(F)F)cc(C(F)(F)F)c1)NC(=O)c1cnccn1)B1OC2C[C@@H]3C[C@@H](C3(C)C)[C@]2(C)O1 (stereo partly specified)
92.3
CC(C)C[C@H](NC(=O)[C@H](Cc1ccccc1)NC(=O)[C@H](Cc1cc(C(F)(F)F)cc(C(F)(F)F)c1)NC(=O)[C@H](Cc1ccccc1)N=[N+]=[N-])C(=O)[C@@]1(C)CO1
94.7

Q: Determine its reported Activity: CC(C)C[C@H](NC(=O)[C@H](Cc1c(F)c(F)c(F)c(F)c1F)NC(=O)[C@H](Cc1ccccc1)NC(=O)[C@H](Cc1ccccc1)N=[N+]=[N-])C(=O)[C@@]1(C)CO1
Ans: 104

Q: Determine its reported Activity: CC(C)C[C@H](NC(=O)[C@H](Cc1cc(C(F)(F)F)cc(C(F)(F)F)c1)NC(=O)[C@H](Cc1ccccc1)NC(=O)[C@H](Cc1ccccc1)N=[N+]=[N-])C(=O)[C@@]1(C)CO1
Ans: 98.1

Q: Determine its reported Activity: CC(C)C[C@H](NC(=O)[C@H](Cc1c(F)c(F)c(F)c(F)c1F)NC(=O)c1cnccn1)B1OC2C[C@@H]3C[C@@H](C3(C)C)[C@]2(C)O1 (stereo partly specified)
Ans: 99.5

---

- experimentalSystem: Proteasome Macropain subunit (Homo sapiens) (UniProt P49721)
- Sequence (P49721 whole entry): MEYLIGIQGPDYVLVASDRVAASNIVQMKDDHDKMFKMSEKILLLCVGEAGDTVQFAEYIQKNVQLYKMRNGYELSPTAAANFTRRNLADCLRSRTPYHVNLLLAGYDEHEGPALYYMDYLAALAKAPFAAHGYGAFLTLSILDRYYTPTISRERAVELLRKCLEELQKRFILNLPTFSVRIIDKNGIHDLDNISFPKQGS
- assayDetails: Inhibition of 26S proteasome beta 2 in human HEK293 cell lysate assessed as residual activity at […] after 1 hr
- Format: cell-free
endpointLabel: Activity
The answer consists of two parts: a number and, after it, its unit.

// solved cases for Activity follow
CC(C)C[C@H](NC(=O)[C@H](Cc1cc(C(F)(F)F)cc(C(F)(F)F)c1)NC(=O)[C@H](Cc1ccccc1)NC(=O)[C@H](Cc1ccccc1)N=[N+]=[N-])C(=O)[C@@]1(C)CO1
77.1%
CC(C)C[C@H](NC(=O)[C@H](Cc1ccccc1)NC(=O)[C@H](Cc1cc(C(F)(F)F)cc(C(F)(F)F)c1)NC(=O)[C@H](Cc1ccccc1)N=[N+]=[N-])C(=O)[C@@]1(C)CO1
92.9%

Then this molecule:
Q: Look up and report measured Activity (Proteasome Macropain subunit (Homo sapiens) (UniProt P49721)) for the following molecule: CC(C)C[C@H](NC(=O)[C@H](Cc1c(F)c(F)c(F)c(F)c1F)NC(=O)c1cnccn1)B1OC2C[C@@H]3C[C@@H](C3(C)C)[C@]2(C)O1 (stereo partly drawn)
Ans: 118%

---

Form field: Activity (one value per entry).
- experimentalSystem: Proteasome Macropain subunit (Homo sapiens) (UniProt P49721)
- assayDetails: Inhibition of 26S proteasome beta 2 in human HEK293 cell lysate assessed as residual activity at 0.002 uM after 1 hr
- Format: cell-free
Write down the numeric answer in % and omit the unit.

// solved cases for Activity follow
CC(C)C[C@H](NC(=O)[C@H](Cc1cc(C(F)(F)F)cc(C(F)(F)F)c1)NC(=O)c1cnccn1)B1OC2C[C@@H]3C[C@@H](C3(C)C)[C@]2(C)O1 (stereo partly specified)
93.1
CC(C)C[C@H](NC(=O)[C@H](Cc1ccccc1)NC(=O)[C@H](Cc1cc(C(F)(F)F)cc(C(F)(F)F)c1)NC(=O)[C@H](Cc1ccccc1)N=[N+]=[N-])C(=O)[C@@]1(C)CO1
104
CC(C)C[C@H](NC(=O)[C@H](Cc1ccccc1)NC(=O)[C@H](Cc1ccccc1)NC(=O)[C@H](Cc1ccccc1)N=[N+]=[N-])C(=O)[C@@]1(C)CO1
109
CC(C)C[C@H](NC(=O)[C@H](Cc1c(F)c(F)c(F)c(F)c1F)NC(=O)c1cnccn1)B1OC2C[C@@H]3C[C@@H](C3(C)C)[C@]2(C)O1 (stereo partly specified)
99
CC(C)C[C@H](NC(=O)[C@H](Cc1c(F)c(F)c(F)c(F)c1F)NC(=O)[C@H](Cc1ccccc1)NC(=O)[C@H](Cc1ccccc1)N=[N+]=[N-])C(=O)[C@@]1(C)CO1
106

Then this compound:
Q: Look up and report measured Activity (Proteasome Macropain subunit (Homo sapiens) (UniProt P49721)) for the following compound: CC(C)C[C@H](NC(=O)[C@H](Cc1cc(C(F)(F)F)cc(C(F)(F)F)c1)NC(=O)[C@H](Cc1ccccc1)NC(=O)[C@H](Cc1ccccc1)N=[N+]=[N-])C(=O)[C@@]1(C)CO1
Ans: 99.6
